test.method.notes: MTT cytotoxicity assay of ceftriaxone-based GUMBOS
Assay type: cell-based
test.parameters: human; HeLa cells, 60 min; read-out: Acute cytotoxicity (IC50)
Where a name gives a salt, the structure may show the parent alone.
measured.quantity: IC50 at 60 min (µM)
Report the figure in µM without appending any unit label.

Challenge: Param item = CCCCCCCCN=c1ccn(CCCCCCCCCCn2ccc(=NCCCCCCCC)cc2)cc1 [Octenidine dihydrochloride, octenidine dihydrochloride] ; retrieve measured IC50 at 60 min.
Response given: 25.9

====

Test system: HeLa cells
test.method.notes: MTT cytotoxicity assay of ceftriaxone-based GUMBOS
Type: cell-based
test.parameters: 60 min, read-out: Acute cytotoxicity (IC50)
measured.quantity: pIC50
Quick note: pIC50 values are minus log10 of concentrations in mol/L.

// below: answered compounds
compound	measured.result
CC(=O)O.CC(=O)O.NC(=N\CCCCCC/N=C(N)/N=C(\N)Nc1ccc(Cl)cc1)/N=C(\N)Nc1ccc(Cl)cc1 [Chlorhexidine diacetate, chlorhexidine diacetate]	4.61
CCCCCCCCNc1cc[n+](CCCCCCCCCC[n+]2ccc(NCCCCCCCC)cc2)cc1.CON=C(C(=O)NC1C(=O)N2C(C(=O)[O-])=C(CSc3nc(=O)c([O-])nn3C)CSC12)c1csc(N)n1 [[OCT][CRO], octenidine-ceftriaxone]	4.36

Let us move to another entry and its pIC50.
Challenge: Param item = CON=C(C(=O)NC1C(=O)N2C(C(=O)O)=C(CSc3nc(=O)c(O)nn3C)CSC12)c1csc(N)n1.N=C(NCCCCCCNC(=N)NC(=N)Nc1ccc(Cl)cc1)NC(=N)Nc1ccc(Cl)cc1 (stereo not drawn) [[CHX][CRO], chlorhexidine-ceftriaxone] ; retrieve measured pIC50.
Response given: 4.34

====

Tested on: N. gonorrhoeae clinical isolates
test.method.notes: Kirby-Bauer disc diffusion against N. gonorrhoeae clinical isolates
Format: cell-based, Neisseria gonorrhoeae
test.parameters: three clinical isolates, 20-24 h
Where a name gives a salt, the structure may show the parent alone.
Some compounds, each annotated with its measured Zone size, mm (±SD).
Give the value; after it, write the unit.

// below: answered compounds
compound	measured.target	Zone size, mm (±SD)
CC[C@H]1OC(=O)[C@H](C)[C@@H](O[C@H]2C[C@@](C)(OC)[C@@H](O)[C@H](C)O2)[C@H](C)[C@@H](O[C@@H]2O[C@H](C)C[C@H](N(C)C)[C@H]2O)[C@](C)(O)C[C@@H](C)CN(C)[C@H](C)[C@@H](O)[C@]1(C)O	N. gonorrhoeae clinical isolates	36 ± 4 mm
CC1(C)S[C@@H]2[C@H](NC(=O)C(C(=O)[O-])c3ccccc3)C(=O)N2[C@H]1C(=O)[O-].CCCCCCCCNc1cc[n+](CCCCCCCCCC[n+]2ccc(NCCCCCCCC)cc2)cc1 [[OCT][CAR], octenidine/carbenicillin]	N. gonorrhoeae clinical isolates	37 ± 4 mm
CO/N=C(\C(=O)N[C@@H]1C(=O)N2C(C(=O)[O-])=C(CSc3nc(=O)c([O-])nn3C)CS[C@H]12)c1csc(N)n1.[Na+].[Na+] [Ceftriaxone, Ceftriaxone disodium salt]	N. gonorrhoeae clinical isolates	49 ± 4 mm
CCCCCCCCN=c1ccn(CCCCCCCCCCn2ccc(=NCCCCCCCC)cc2)cc1 [Octenidine dihydrochloride, octenidine dihydrochloride]	N. gonorrhoeae clinical isolates	9 ± 0.3 mm
C[C@H]1c2cccc(O)c2C(=O)C2=C(O)[C@]3(O)C(=O)C(C(N)=O)=C(O)[C@@H](N(C)C)[C@@H]3[C@@H](O)[C@@H]21	N. gonorrhoeae clinical isolates	28 ± 7 mm

Challenge: Param item = CC1(C)S[C@@H]2[C@H](NC(=O)C(C(=O)[O-])c3ccccc3)C(=O)N2[C@H]1C(=O)[O-].[Na+].[Na+] (stereo partly drawn) [Na2 CAR, disodium carbenicillin] ; retrieve measured Zone size, mm (±SD).
Response given: 28 ± 3 mm

Hello, the source for this data is patent US20240197702A1, in case you need it.
